Readings of IC50 for the listed molecules
# TARGET_OR_TEST_SYSTEM: glutathione S-transferase (GST)-fused full-length human Syk protein (Homo sapiens, UniProt P43405)
# Construct: (GST)-fused full-length human Syk protein; GST (glutathione S-transferase); purchased Carna Biosciences
# PROTOCOL: Syk enzyme assay
# Type: biochemical
# CONDITION_LABEL: Syk enzyme assay, Test Example 1; read-out: IC50 of Syk-inhibitory activity
# Protocol: A glutathione S-transferase (GST)-fused full-length human Syk protein (Carna Biosciences), which had been generated using a Baculovirus expression system, was used in the Syk enzyme assay. 15 μl of a reaction solution (1.2 ng Syk, 20 mM HEPES, 10 mM MgCl2, 50 mM NaCl, 2 mM DTT, 0.05% BSA, pH 7.0) containing a Syk protein and a predetermined concentration of a test compound was shaken for 2 minutes, and it was then left at rest at room temperature for 13 minutes. […]

Recorded IC50, per entry:
MOLECULE	MEASURED
NC(=O)c1cc(F)c(N[C@H](c2ccccc2)[C@@H](N)c2ccccc2)nc1Nc1cccc(-n2nccn2)c1 (racemic)	10 to 50 nM
Cc1ncc(Nc2nc(NC3CCCCC3N)c(F)cc2C(N)=O)cc1-c1ccoc1 (stereo not shown)	< 10 nM
CCOc1nccc2cc(Nc3nc(N[C@@H]4CCCC[C@@H]4N)c(F)cc3C(N)=O)ccc12 (relative stereo)	< 10 nM

Please fill in: IC50 reported for NC(=O)c1cc(F)c(NC2CCCCC2N)nc1Nc1ccc2c(F)nn(CCF)c2c1 (stereo not shown) = < 10 nM

###

# TARGET_OR_TEST_SYSTEM: glutathione S-transferase (GST)-fused full-length human Syk protein (Homo sapiens)
# Construct: (GST)-fused full-length human Syk protein; GST (glutathione S-transferase); purchased Carna Biosciences
# PROTOCOL: Syk enzyme assay
# Type: biochemical
# CONDITION_LABEL: Syk enzyme assay, Test Example 1; read-out: IC50 of Syk-inhibitory activity
pIC50: −log10 of the molar value.
Readings of pIC50 for the listed compounds

COMPOUND	pIC50
CNc1ccc(Nc2nc(NC3CCCCC3N)c(F)cc2C(N)=O)cn1 (stereo not drawn)	7.30 to 8.00
Cc1cncc(Nc2nc(N[C@H](C)CN)c(F)cc2C(N)=O)c1	7.30 to 8.00
Cc1nn(C)c2ccc(Nc3nc(N[C@H](CC(C)C)[C@H](C)N)c(F)cc3C(N)=O)cc12	> 8.00
COc1ccc(-c2cc(Nc3nc(N[C@@H](CN)CC(C)C)c(F)cc3C(N)=O)ccn2)c(F)c1	> 8.00
COc1cc(-c2cncc(Nc3nc(N[C@@H]4CCCC[C@@H]4N)c(F)cc3C(N)=O)c2)ccn1 (relative stereo)	> 8.00
NC(=O)c1cc(F)c(NCC2(N)CC2)nc1Nc1ccc2ncccc2c1	> 8.00

Please fill in: pIC50 reported for "CCCC[C@H](CN)Nc1nc(Nc2ccc3ncccc3c2)c(C(N)=O)cc1F" = > 8.00

Please fill in: pIC50 reported for C[C@H](N)[C@@H](C)Nc1nc(Nc2ccc3ncccc3c2)c(C(N)=O)cc1F (racemic) [Example 39-1] = > 8.00

Please fill in: pIC50 reported for "CCC[C@@H](Nc1nc(Nc2ccc3c(cnn3CC)c2)c(C(N)=O)cc1F)[C@@H](N)CC" = > 8.00

###

Readings of IC50 for the listed compounds
# System: THP-1 cells
# PROTOCOL: TNFα generation assay
# Type: cell-based, human
# CONDITION_LABEL: Homo sapiens, THP-1, THP-1 cells; Table 22; read-out: IC50 in TNFα generation assay

COMPOUND	OBSERVED_PROPERTY	MEASURED
CC(C)C[C@H](CN)Nc1nc(Nc2cncc(Cl)c2)c(C(N)=O)cc1F [Example 006-180]	IC50	130 to 200 nM
Cn1nc(C2CC2)c2cc(Nc3nc(N[C@@H]4CCCC[C@@H]4N)c(F)cc3C(N)=O)ccc21 [Example 006-544]	IC50	65 to 130 nM

Please fill in: IC50 reported for COc1ccc(-c2cncc(Nc3nc(NC4CCCCC4N)c(F)cc3C(N)=O)c2)cc1OC (stereo not shown) [Example 002-170] = 65 to 130 nM

Please fill in: IC50 reported for NC(=O)c1cc(F)c(N[C@@H]2CCCC[C@@H]2N)nc1Nc1ccc2cnccc2c1 (relative stereo) [Example 004-163] = < 65 nM

Please fill in: IC50 reported for CCCC[C@H](CN)Nc1nc(Nc2cnc3cc(OC)ccc3c2)c(C(N)=O)cc1F [Example 006-293] = 65 to 130 nM

Please fill in: IC50 reported for CC[C@@H](Nc1nc(Nc2cncc(C3CC3)c2)c(C(N)=O)cc1F)[C@H](C)N [Example 006-255] = 65 to 130 nM

Please fill in: IC50 reported for NC(=O)c1cc(F)c(NC2CCCCC2N)nc1Nc1ccnc(N2CCOCC2)c1F (stereo not shown) [Example 002-165] = 65 to 130 nM

Please fill in: IC50 reported for CCC[C@@H](Nc1nc(Nc2ccnc(OCCOC)c2)c(C(N)=O)cc1F)[C@H](C)N [Example 006-310] = 65 to 130 nM

Please fill in: IC50 reported for NC(=O)c1cc(F)c(NC2CCCCC2N)nc1Nc1ccnc(-c2ccoc2)c1 (stereo not shown) [Example 002-057] = 65 to 130 nM

Please fill in: IC50 reported for NC(=O)c1cc(Br)c(NC2CCCCC2N)nc1Nc1cnc2ccccc2c1 (stereo not shown) [Example 035-002] = 65 to 130 nM

Please fill in: IC50 reported for CCC[C@@H](Nc1nc(Nc2ccc3ncccc3c2)c(C(N)=O)cc1F)[C@@H](N)CC [Example 006-200] = 65 to 130 nM

Please fill in: IC50 reported for CCC[C@@H](Nc1nc(Nc2ccc3nccnc3c2)c(C(N)=O)cc1F)[C@H](C)N [Example 006-240] = < 65 nM

Please fill in: IC50 reported for C[C@H](CN)Nc1nc(Nc2ccc3c(cnn3C)c2)c(C(N)=O)cc1F [Example 006-102] = 65 to 130 nM

Please fill in: IC50 reported for C[C@H](N)[C@@H](CC1CC1)Nc1nc(Nc2ccc3cnn(C4CC4)c3c2)c(C(N)=O)cc1F [Example 006-480] = 130 to 200 nM

Please fill in: IC50 reported for COc1ccc(F)c(-c2cc(Nc3nc(NC4CCCCC4N)c(F)cc3C(N)=O)ccn2)c1 (stereo not shown) [Example 002-141] = 65 to 130 nM

Please fill in: IC50 reported for CCC[C@@H](Nc1nc(Nc2cncc(-c3ccc(OC)cc3F)c2)c(C(N)=O)cc1F)[C@H](C)N [Example 006-287] = 65 to 130 nM

###

Readings of IC50 for the listed compounds
# TARGET_OR_TEST_SYSTEM: glutathione S-transferase (GST)-fused full-length human Syk protein (Homo sapiens, UniProt P43405)
# Construct: (GST)-fused full-length human Syk protein; GST (glutathione S-transferase); purchased Carna Biosciences
# PROTOCOL: Syk enzyme assay
# Format: biochemical
# CONDITION_LABEL: Syk enzyme assay, Test Example 1; read-out: IC50 of Syk-inhibitory activity

COMPOUND	IC50
CC(C)C[C@H](CN)Nc1nc(Nc2cncc(-c3ccccc3F)c2)c(C(N)=O)cc1F [Example 006-316]	10 to 50 nM
CCOc1ncc(Nc2nc(N[C@@H]3CCCC[C@@H]3N)c(F)cc2C(N)=O)cc1F [Example 006-572]	10 to 50 nM
NC(=O)c1cc(F)c(NC2CCCCC2N)nc1Nc1ccnc(-c2ccoc2)c1 (centres unmarked) [Example 002-057]	< 10 nM
COc1cc(Nc2nc(N[C@@H]3CCCC[C@@H]3N)c(F)cc2C(N)=O)cnc1N1CCOCC1 [Example 004-233]	100 to 1000 nM
CCC[C@@H](Nc1nc(Nc2ccc3c(cnn3C)c2)c(C(N)=O)cc1F)[C@H](C)N [Example 006-236]	< 10 nM
CC[C@@H](Nc1nc(Nc2ccnc(-c3ccc(OC)cc3F)c2)c(C(N)=O)cc1F)[C@H](C)N [Example 006-332]	< 10 nM
CC(C)c1cncc(Nc2nc(NC3CCCCC3N)c(F)cc2C(N)=O)c1 (centres unmarked) [Example 002-039]	10 to 50 nM

Now, please, on to the next compound.
Please fill in: IC50 reported for NC(=O)c1cc(F)c(N[C@@H]2CCCC[C@@H]2N)nc1Nc1cnc2[nH]ccc2c1 (relative stereo) [Example 004-061] = < 10 nM

###

# TARGET_OR_TEST_SYSTEM: glutathione S-transferase (GST)-fused full-length human Syk protein (Homo sapiens)
# Construct: (GST)-fused full-length human Syk protein; GST (glutathione S-transferase); purchased Carna Biosciences
# PROTOCOL: Syk enzyme assay
# Format: biochemical
# CONDITION_LABEL: read-out: Syk-inhibitory activity (IC50)
OBSERVED_PROPERTY: IC50

Please fill in: IC50 reported for COc1cc(Nc2nc(NC(C(N)=O)C(C)C)c(F)cc2C(N)=O)cc(OC)c1 (stereo not drawn) = ≤ 1000 nM

Please fill in: IC50 reported for NC(=O)c1cc(F)c(N[C@@H]2CCCC[C@@H]2N)nc1Nc1cccc2nsnc12 (relative stereo) = ≤ 1000 nM

Please fill in: IC50 reported for "NC(=O)c1cc(F)c(N[C@H](Cc2ccccc2)C(N)=O)nc1Nc1cnc2ccccc2c1" = ≤ 1000 nM
